The measured values listed here are drawn from patent US10925971B2.

# Tested on: Macaca fascicularis PRLR (mfPRLR.mmh; SEQ ID NO:403)
# Sequence (as listed by the source): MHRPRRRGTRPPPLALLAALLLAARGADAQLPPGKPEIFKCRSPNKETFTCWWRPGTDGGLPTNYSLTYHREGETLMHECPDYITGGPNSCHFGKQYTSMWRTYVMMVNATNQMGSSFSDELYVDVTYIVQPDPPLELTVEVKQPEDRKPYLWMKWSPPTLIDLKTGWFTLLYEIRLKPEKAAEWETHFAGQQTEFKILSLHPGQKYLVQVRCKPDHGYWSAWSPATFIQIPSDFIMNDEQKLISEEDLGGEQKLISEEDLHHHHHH
# MEASUREMENT DESCRIPTION: Surface plasmon resonance (Biacore T200), antibody-capture format
# Type: binding
# MEASUREMENT PARAMETERS: 25° C., analyte mfPRLR.mmh
QUANTITY KIND: ka (M/s)
Write down the numeric answer in M/s and omit the unit.

Report ka for H1H6960N: anti-PRLR antibody, human IgG1 Fc form of H2M6960N of Table 1; HCVR/LCVR SEQ ID NOs 322/330 (antibody, V domains shown, human IgG1 Fc) VH: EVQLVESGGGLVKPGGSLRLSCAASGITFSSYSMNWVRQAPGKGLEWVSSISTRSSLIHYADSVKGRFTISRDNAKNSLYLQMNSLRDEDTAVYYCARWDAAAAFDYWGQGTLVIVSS VL: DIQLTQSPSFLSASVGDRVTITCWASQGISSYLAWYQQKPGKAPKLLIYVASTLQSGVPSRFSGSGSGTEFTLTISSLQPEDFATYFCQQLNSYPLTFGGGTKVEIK please.
94000
